Molecular target: Human sEH (HsEH) (Homo sapiens, UniProt P34913)
Test: Inhibition of recombinant human sEH (HsEH)
Assay type: biochemical
Details: Table 1; HsEH 0.26 μM
experimental_readout: IC50 (nM)

Past entries and their recorded results:
1. CCCCCCCCCCCCNC(=O)NCC(C)C [compound 478] :: 260
2. O=C(Nc1ccc(Oc2ccccc2)cc1)NC1CCCCC1 [compound 140] :: 100

[a] CCCCCCCCCCNC(=O)Nc1ccccc1 [compound 148]
[b] Nc1ccc(CNC(=O)NC2CCCCC2)cc1 [compound 379]
[c] CC1CCCCC1NC(=O)NC1CCCCC1 (stereo not drawn) [compound 551]
[d] O=C(NCc1ccc([N+](=O)[O-])cc1)NC1CCCCC1 [compound 341]
Challenge: Kindly order the items shown according to IC50, from the highest value down. Respond with the label ranking, as requested.
Response given: d, b, a, c

----------
Biological target: Human sEH (HsEH) (Homo sapiens, UniProt P34913)
Experiment: Inhibition of recombinant human sEH (HsEH)
Type: biochemical
Details: Table 1; HsEH 0.26 μM
experimental_readout: IC50 (nM)

[A] CCOC(CNC(=O)Nc1ccc(C(C)C)cc1)OCC
[B] CCCCCCCCCNC(=O)NCCC
Challenge: Returns the identifier with the smallest measured IC50 among A and B . Answer by stating the label of the chosen item.
Response given: B
(B: 1700 nM, A: 3400 nM)

----------
Target: recombinant mouse sEH (MsEH) (Mus musculus, UniProt P34914)
Test: Inhibition of recombinant mouse sEH (MsEH)
Type: biochemical
Details: Table 2; MsEH 0.13 μM; read-out: Mouse sEH IC50
pIC50: −log10 of the molar value.
experimental_readout: pIC50

1. COC(c1ccccc1)C1OC1c1ccc(-c2ccccc2)cc1 (racemic) :: 6.32

[a] OC(c1ccccc1)C1OC1c1ccc(F)cc1 (racemic)
[b] O=[N+]([O-])c1ccc([C@H]2O[C@@H]2CO)cc1
[c] CC(=O)C1OC1c1ccc([N+](=O)[O-])cc1 (racemic)
Challenge: Provide the items ranked by increasing pIC50. Respond with the label ranking, as requested.
Response given: b, c, a

----------
Molecular target: Human sEH (HsEH) (Homo sapiens)
Assay: Inhibition of recombinant human sEH (HsEH)
Type: biochemical
Settings: Table 2; HsEH 0.26 μM
experimental_readout: IC50 (nM)

1) OC(c1ccccc1)C1OC1c1ccc(-c2ccccc2)cc1 (racemic) :: 720
2) O=C(c1ccccc1)C1OC1c1ccc(-c2ccccc2)cc1 (racemic) :: 200
3) OC(c1ccccc1)C1OC1c1ccccc1 (racemic) :: 22000
4) O=C(c1ccccc1)C1OC1c1ccccc1 (racemic) :: 300

[I] ON=C(c1ccccc1)C1OC1c1ccccc1 (racemic)
[II] [O-][S+](c1ccccc1)C1OC1c1ccc(-c2ccccc2)cc1 (racemic)
[III] OC(c1ccccc1)C1OC1c1ccc(F)cc1 (racemic)
Challenge: Provide the items ranked by increasing IC50. Respond with the label ranking, as requested.
Response given: I, III, II

----------
Target: recombinant mouse sEH (MsEH) (Mus musculus, UniProt P34914)
Assay: Inhibition of recombinant mouse sEH (MsEH)
Type: biochemical
Conditions: Table 1; MsEH 0.13 μM; read-out: Mouse sEH IC50
pIC50: −log10 of the molar value.
experimental_readout: pIC50

Past entries and their recorded results:
1. CCOC(CNC(=O)Nc1ccc(C(C)C)cc1)OCC :: 6.23
2. CCCCCCCCNC(=O)OC :: 6.96
3. CC(C)(C)c1ccc(NC(=O)NC2CCCCC2)cc1 :: 7.22
4. CC(=O)c1ccc(NC(=O)NC2CCCCC2)cc1 :: 7.22

[I] O=C(NCC1CCCCC1)NC12CC3CC(CC(C3)C1)C2
[II] O=C(Nc1c2ccccc2nc2ccccc12)NC1CCCCC1
[III] O=C(Nc1ccc(Br)cc1)NC1CCCCC1
[IV] O=C(NC1CCCCC1)OCCCCC1CCCCC1
Challenge: Kindly order the items shown according to pIC50, from the highest value down. Respond with the label ranking, as requested.
Response given: I, II, III, IV
(I: 7.30, II: 7.10, III: 6.77, IV: 5.96)

----------
Biological target: UniProt P34913
Sequence (P34913 1-555): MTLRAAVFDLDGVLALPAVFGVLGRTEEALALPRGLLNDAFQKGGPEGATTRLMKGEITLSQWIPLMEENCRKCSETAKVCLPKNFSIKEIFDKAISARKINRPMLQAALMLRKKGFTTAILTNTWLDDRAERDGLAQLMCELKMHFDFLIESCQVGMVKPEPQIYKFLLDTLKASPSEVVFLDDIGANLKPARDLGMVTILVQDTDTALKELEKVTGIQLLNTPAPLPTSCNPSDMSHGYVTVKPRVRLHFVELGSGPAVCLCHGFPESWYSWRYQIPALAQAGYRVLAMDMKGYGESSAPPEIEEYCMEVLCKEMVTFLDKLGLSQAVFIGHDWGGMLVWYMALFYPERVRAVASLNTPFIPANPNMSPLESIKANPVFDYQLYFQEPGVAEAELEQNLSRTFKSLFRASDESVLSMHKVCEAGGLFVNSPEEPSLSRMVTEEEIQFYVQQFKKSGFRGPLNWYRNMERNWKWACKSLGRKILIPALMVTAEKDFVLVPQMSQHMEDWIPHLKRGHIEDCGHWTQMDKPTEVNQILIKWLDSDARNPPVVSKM
Assay: Inhibition of recombinant human sEH (HsEH)
Type: biochemical
Conditions: Table 2; HsEH 0.26 μM
experimental_readout: IC50 (nM)

Past entries and their recorded results:
1) CC(O)C1OC1c1ccc([N+](=O)[O-])cc1 (racemic) [R=4-NO2—C6H4, R′=CH3, X—Y=CH—OH, ±] :: 39000
2) O=C(c1ccccc1)C1OC1c1ccc(F)cc1 (racemic) [R=4-F-C6H4, R′=C6H5, X—Y=C═O, ±] :: 300
3) ON=C(c1ccccc1)C1OC1c1ccc(-c2ccccc2)cc1 (racemic) [R=4-C6H5—C6H4, R′=C6H5, X—Y=C═NOH, ±] :: 35000

[I] [O-][S+](c1ccccc1)C1OC1c1ccccc1 (racemic) [R=C6H5, R′=C6H5, X—Y=S═O, ±]
[II] Cc1ccc(C(O)C2OC2c2ccc(-c3ccccc3)cc2)cc1 (racemic)
Challenge: Returns the identifier with the smallest measured IC50 among I and II . Answer by stating the label of the chosen item.
Response given: II

----------
Target: recombinant mouse sEH (MsEH) (Mus musculus, UniProt P34914)
Experiment: Inhibition of recombinant mouse sEH (MsEH)
Format: biochemical
Conditions: Table 1; MsEH 0.13 μM; read-out: Mouse sEH IC50
experimental_readout: IC50 (nM)

Past entries and their recorded results:
1) CCCCCCCCCNC(=O)NC1CCCCC1 :: 50
2) O=C(Nc1ccc(Oc2ccccc2)cc1)NC1CCCCC1 :: 50
3) O=C(NCCC1=CCCCC1)NC1CCCCC1 :: 50
4) CN(C)c1ccc(NC(=O)NC2CCCCC2)cc1 :: 50
5) O=C(NCCCc1ccccc1)NC1CCCCC1 :: 40

[I] Cc1ccc(NC(=O)NC2CCCCC2)cc1
[II] O=C(NCCCCc1ccccc1)NC1CCCCC1
[III] O=C(NC1CCCCC1)OCc1ccc(-c2ccccc2)cc1
Challenge: Provide the items ranked by increasing IC50. Respond with the label ranking, as requested.
Response given: II, I, III

[A] CCCCCCCCCCNC(=O)Nc1cccc(Cl)c1
[B] CC(NC(=O)NC1CCCCC1)C1C2CC3CC(C2)CC1C3 (centres unmarked)
Challenge: Returns the identifier with the smallest measured IC50 among A and B . Answer by stating the label of the chosen item.
Response given: B

----------
Molecular target: recombinant mouse sEH (MsEH) (Mus musculus)
Experiment: Inhibition of recombinant mouse sEH (MsEH)
Type: biochemical
Conditions: Table 2; MsEH 0.13 μM; read-out: Mouse sEH IC50
experimental_readout: IC50 (µM)

[a] OC(c1ccccc1)C1OC1c1ccc(-c2ccccc2)cc1 (racemic)
[b] CC(O)C1OC1c1ccc([N+](=O)[O-])cc1 (racemic)
[c] OC(c1ccccc1)C1OC1c1ccccc1 (racemic)
[d] O=[N+]([O-])c1ccc([C@@H]2O[C@H]2CO)cc1
Challenge: Exam item: list the entries in increasing order of IC50. Respond with the label ranking, as requested.
Response given: a, d, b, c

----------
Biological target: recombinant mouse sEH (MsEH) (Mus musculus)
Sequence (P34914 1-554): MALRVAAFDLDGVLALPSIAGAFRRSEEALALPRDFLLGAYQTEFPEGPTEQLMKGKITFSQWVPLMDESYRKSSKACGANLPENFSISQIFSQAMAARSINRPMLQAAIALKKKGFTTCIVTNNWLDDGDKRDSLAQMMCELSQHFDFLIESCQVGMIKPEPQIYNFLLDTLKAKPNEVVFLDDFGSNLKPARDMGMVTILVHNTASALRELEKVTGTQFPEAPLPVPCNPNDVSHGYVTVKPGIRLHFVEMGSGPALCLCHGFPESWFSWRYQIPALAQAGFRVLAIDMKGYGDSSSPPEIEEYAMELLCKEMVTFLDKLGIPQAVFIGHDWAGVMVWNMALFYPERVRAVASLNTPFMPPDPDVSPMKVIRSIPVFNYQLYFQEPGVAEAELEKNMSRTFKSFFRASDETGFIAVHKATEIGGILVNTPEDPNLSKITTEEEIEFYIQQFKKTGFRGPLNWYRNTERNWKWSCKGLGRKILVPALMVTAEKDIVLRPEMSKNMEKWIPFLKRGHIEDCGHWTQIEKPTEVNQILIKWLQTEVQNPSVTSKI
Test: Inhibition of recombinant mouse sEH (MsEH)
Assay type: biochemical
Conditions: Table 1; MsEH 0.13 μM; read-out: Mouse sEH IC50
pIC50: −log10 of the molar value.
experimental_readout: pIC50

Past entries and their recorded results:
1) C[C@H](NC(=O)NC1CCCCC1)c1ccccc1 :: 7.30
2) CCCCCCCCNC(=O)NC(C)C :: 5.97
3) O=C(CC1CCCCC1)NC1CCCCC1 :: 7.30
4) O=C(NCc1ccncc1)NC1CCCCC1 :: 6.14
5) O=C(NCCCCCCO)NC1CCCCC1 :: 7.30

[I] O=C(NCCC1CCCCC1)NC1CCCCC1
[II] CCCNC(=O)NC1CCCCCCCCCCC1
[III] CCCCCCCCCCCCNC(=O)NCCCC
[IV] CCOC(CCCNC(=O)Nc1cccc(Cl)c1)OCC
Challenge: Kindly order the items shown according to pIC50, from the highest value down. Respond with the label ranking, as requested.
Response given: I, III, IV, II
(I: 7.30, III: 6.85, IV: 6.41, II: 6.10)

[P] CCCCCCCCCCNC(=O)NC1CCCCC1
[Q] CC(C)[C@@H]1CC[C@@H](C)C[C@H]1OC(=O)NC1CCCCC1
[R] CCCCCCCCCCNC(=O)Nc1ccccc1
[S] CCCCCCNC(=O)NC1CCCCC1
[T] O=C(NCc1ccc([N+](=O)[O-])cc1)NC1CCCCC1
Challenge: Provide the items ranked by increasing pIC50. Respond with the label ranking, as requested.
Response given: T, Q, R, S, P

Sourced from patent US6756210B2
